Experiment: CCK-8 cell viability (CC50) in T-47D cells
Assay type: cell-based
Conditions: human
measurementType: CC50
Returns: string containing the number followed by the unit.

Given c1csc(-c2ccc(-c3cccs3)s2)c1 [#2, 2,2':5′,2″-Terthiophene] , state its recorded CC50.
95.5 µM

###

Experiment: CCK-8 cell viability (CC50) in T-47D cells
Assay type: cell-based
Conditions: human, T-47D breast cancer cells; T-47D cells 1000/well, CCK-8; read-out: CC50
measurementType: CC50 (µM)
I only need the number, in µM, no unit after it.

Given `C#C[C@]1(O)CC[C@H]2[C@@H]3CCc4cc(O)ccc4[C@H]3CC[C@@]21C` , state its recorded CC50.
91.4
